# TEST PROTOCOL: The drug is tested on Enterococcus faecalis strain: V583 for biotransformation. The drug concentrations were measured before and after a 12-h incubation by liquid-chromatography-coupled mass spectrometry (LC–MS)
# CONDITION SET: 2 µM
MEASURED ENDPOINT: Bacterial Biotransformation

Take a look at these entries with their results.
COMPOUND	Bacterial Biotransformation
CC(C)(C(=O)O)c1ccc(C(O)CCCN2CCC(C(O)(c3ccccc3)c3ccccc3)CC2)cc1 (stereo not drawn) [FEXOFENADINE]	Compound NOT metabolized
C#C[C@]1(O)CC[C@H]2[C@@H]3CCC4=Cc5oncc5C[C@]4(C)[C@H]3CC[C@@]21C [DANAZOL]	Compound metabolized
CC(N)C12CC3CC(CC(C3)C1)C2 (stereo not drawn) [RIMANTADINE]	Compound NOT metabolized
CCN1CCCC1CNC(=O)c1cc(S(=O)(=O)CC)c(N)cc1OC (stereo not drawn) [AMISULPRIDE]	Compound NOT metabolized
CNS(=O)(=O)Cc1ccc2[nH]cc(CCN(C)C)c2c1.O=C(O)CCC(=O)O [SUMATRIPTAN SUCCINATE]	Compound NOT metabolized

Input line: Specify reported Bacterial Biotransformation for the compound shown: N#Cc1ccc2c(c1)N(CCCN1CCC(O)CC1)c1ccccc1S2 [PERICIAZINE]
Output line: Compound NOT metabolized

Input line: Specify reported Bacterial Biotransformation for the compound shown: CC(C)(C#N)c1cc(Cn2cncn2)cc(C(C)(C)C#N)c1 [ANASTROZOLE]
Output line: Compound NOT metabolized

* * *

# TEST PROTOCOL: The drug is tested on Clostridium sporogenes strain: ATCC15579 for biotransformation. The drug concentrations were measured before and after a 12-h incubation by liquid-chromatography-coupled mass spectrometry (LC–MS)
# CONDITION SET: 2 µM
MEASURED ENDPOINT: Bacterial Biotransformation

MOLECULE	OBSERVED VALUE
C[C@]12C=CC(=O)C=C1CC[C@@H]1[C@@H]2C(=O)C[C@@]2(C)[C@H]1CC[C@]2(O)C(=O)CO [PREDNISONE]	Compound NOT metabolized
CC(C)NCC(O)COc1ccc(CCOCC2CC2)cc1 (centres undefined) [BETAXOLOL]	Compound NOT metabolized
CC(C)c1nc(CN(C)C(=O)N[C@H](C(=O)N[C@@H](Cc2ccccc2)C[C@H](O)[C@H](Cc2ccccc2)NC(=O)OCc2cncs2)C(C)C)cs1 [RITONAVIR]	Compound NOT metabolized

* * *

# TEST PROTOCOL: The drug is tested on Bacteroides finegoldii strain: DSM17565 for biotransformation. The drug concentrations were measured before and after a 12-h incubation by liquid-chromatography-coupled mass spectrometry (LC–MS)
# CONDITION SET: 2 µM
MEASURED ENDPOINT: Bacterial Biotransformation

Take a look at these entries with their results.
COMPOUND	MEASURED ENDPOINT	OBSERVED VALUE
CC(CCc1ccccc1)NCC(O)c1ccc(O)c(C(N)=O)c1 (stereo not drawn) [LABETALOL]	Bacterial Biotransformation	Compound NOT metabolized
COc1ccc(Cc2nccc3cc(OC)c(OC)cc23)cc1OC [PAPAVERINE]	Bacterial Biotransformation	Compound NOT metabolized
CN(CCOc1ccc(CC2SC(=O)NC2=O)cc1)c1ccccn1.O=C(O)/C=C\C(=O)O (stereo not drawn) [ROSIGLITAZONE MALEATE]	Bacterial Biotransformation	Compound NOT metabolized
O=c1[nH]c2ccccc2n1CCCN1CCC(n2c(=O)[nH]c3cc(Cl)ccc32)CC1 [DOMPERIDONE]	Bacterial Biotransformation	Compound NOT metabolized
CC(C)(C(=O)O)c1ccc(C(O)CCCN2CCC(C(O)(c3ccccc3)c3ccccc3)CC2)cc1 (stereo not drawn) [FEXOFENADINE]	Bacterial Biotransformation	Compound NOT metabolized
C[C@]12CCC(=O)C=C1[C@@H]1C[C@@H]1[C@H]1[C@@H]3[C@@H]4C[C@@H]4[C@@]4(CCC(=O)O4)[C@@]3(C)CC[C@@H]12 [DROSPIRENONE]	Bacterial Biotransformation	Compound NOT metabolized

Here's the next entry for you.
Input line: Specify reported Bacterial Biotransformation for the compound shown: O=C(NC(Cc1cc(=O)[nH]c2ccccc12)C(=O)O)c1ccc(Cl)cc1 (stereo not drawn) [REBAMIPIDE]
Output line: Compound NOT metabolized

* * *

# CONDITION SET: parabacteroides johnsonii, 12 h, 2 µM
# Description: The drug is tested on Parabacteroides johnsonii strain: DSM18315 for biotransformation. The drug concentrations were measured before and after a 12-h incubation by liquid-chromatography-coupled mass spectrometry (LC–MS)
MEASURED ENDPOINT: Bacterial Biotransformation

Take a look at these entries with their results.
MOLECULE	Bacterial Biotransformation
CCOc1ccccc1OCCN[C@H](C)Cc1ccc(OC)c(S(N)(=O)=O)c1.Cl [TAMSULOSIN HYDROCHLORIDE]	Compound NOT metabolized
CC(C)NCC(O)c1ccc(NS(C)(=O)=O)cc1 (centres undefined)	Compound NOT metabolized
O=C1CN2Cc3c(ccc(Cl)c3Cl)N=C2N1 [ANAGRELIDE]	Compound metabolized
CC(=O)O[C@]1(C(C)=O)CC[C@H]2[C@@H]3C=C(C)C4=CC(=O)CC[C@]4(C)[C@H]3CC[C@@]21C [MEGESTROL ACETATE]	Compound metabolized
COc1ccc(C(CN(C)C)C2(O)CCCCC2)cc1 (centres undefined)	Compound NOT metabolized

Input line: Specify reported Bacterial Biotransformation for the molecule shown: "CC#C[C@]1(O)CC[C@H]2[C@@H]3CCC4=CC(=O)CCC4=C3[C@@H](c3ccc(N(C)C)cc3)C[C@@]21C"
Output line: Compound NOT metabolized

Input line: Specify reported Bacterial Biotransformation for the molecule shown: "N[C@@H](Cc1ccc(N(CCCl)CCCl)cc1)C(=O)O"
Output line: Compound metabolized

Input line: Specify reported Bacterial Biotransformation for the molecule shown: OC(CCN1CCCCC1)(c1ccccc1)C1CCCCC1 (centres undefined)
Output line: Compound NOT metabolized

Input line: Specify reported Bacterial Biotransformation for the molecule shown: "OC(Cn1cncn1)(Cn1cncn1)c1ccc(F)cc1F"
Output line: Compound metabolized

* * *

# TEST PROTOCOL: The drug is tested on Escherichia coli strain: BW25113 for biotransformation. The drug concentrations were measured before and after a 12-h incubation by liquid-chromatography-coupled mass spectrometry (LC–MS)
# CONDITION SET: 2 µM
MEASURED ENDPOINT: Bacterial Biotransformation

Take a look at these entries with their results.
COMPOUND	Bacterial Biotransformation
CN[C@H]1CC[C@@H](c2ccc(Cl)c(Cl)c2)c2ccccc21	Compound NOT metabolized
CCN1CCCC1CNC(=O)c1cc(S(=O)(=O)CC)c(N)cc1OC (stereo unspecified) [AMISULPRIDE]	Compound NOT metabolized
CCOC(=O)C1=C[C@]2(CC)CCCN3CCc4c(n1c1ccccc41)[C@@H]32	Compound NOT metabolized
CC#CCn1c(N2CCC[C@@H](N)C2)nc2c1c(=O)n(Cc1nc(C)c3ccccc3n1)c(=O)n2C	Compound NOT metabolized
Cc1cc2c(cc1S(N)(=O)=O)S(=O)(=O)CCC2	Compound NOT metabolized
CC12CC3CC(C)(C1)CC(N)(C3)C2 [MEMANTINE]	Compound NOT metabolized
CN/C(=N/CCSCc1nc[nH]c1C)NC#N	Compound NOT metabolized
CN1CCC(OC(c2ccccc2)c2ccccc2)CC1	Compound NOT metabolized
COc1ccc2c(c1OC)C(=O)O[C@@H]2[C@H]1c2c(cc3c(c2OC)OCO3)CCN1C	Compound NOT metabolized
COC(=O)[C@H]1[C@H]2C[C@@H]3c4[nH]c5cc(OC)ccc5c4CCN3C[C@H]2C[C@@H](OC(=O)c2cc(OC)c(OC)c(OC)c2)[C@@H]1OC	Compound NOT metabolized

Input line: Specify reported Bacterial Biotransformation for the compound shown: "C[C@]12C=CC(=O)C=C1CC[C@@H]1[C@@H]2C(=O)C[C@@]2(C)[C@H]1CC[C@]2(O)C(=O)CO"
Output line: Compound NOT metabolized

Input line: Specify reported Bacterial Biotransformation for the compound shown: "CC(C)(C)N.CCC[C@H](N[C@@H](C)C(=O)N1[C@H](C(=O)O)C[C@@H]2CCCC[C@@H]21)C(=O)OCC"
Output line: Compound NOT metabolized

* * *

# TEST PROTOCOL: The drug is tested on the gut metagenome community of MV02 with ENA study accession number: PRJEB31790 and ENA sample accession number: SAMEA5537483 for biotransformation. The drug concentrations were measured over 9 timepoints collected between 0 and 24 hours of incubation by liquid-chromatography-coupled mass spectrometry (LC–MS)
# Type: ADME
# Design: dose 2 uM, timepoint 0, 1, 2, 4, 6, 8, 12, 18, 24 hours
# CONDITION SET: 2 µM
MEASURED ENDPOINT: Bacterial Biotransformation

MOLECULE	MEASURED ENDPOINT	OBSERVED VALUE
C#C[C@]1(OC(C)=O)CC[C@H]2[C@@H]3CCC4=CC(=O)CC[C@@H]4[C@H]3CC[C@@]21C [NORETHINDRONE ACETATE]	Bacterial Biotransformation	Compound metabolized
COc1ccc([C@@H]2Sc3ccccc3N(CCN(C)C)C(=O)[C@@H]2OC(C)=O)cc1	Bacterial Biotransformation	Compound NOT metabolized
CC(=O)OCC(CCn1cnc2cnc(N)nc21)COC(C)=O	Bacterial Biotransformation	Compound metabolized
C[C@@H]1C[C@H]2[C@@H]3CCC4=CC(=O)C=C[C@]4(C)[C@@]3(F)[C@@H](O)C[C@]2(C)[C@@]1(O)C(=O)CO	Bacterial Biotransformation	Compound NOT metabolized
